Cited source: the supplement of paper PMC12042874

ASSAY_NAME: amyloid nucleation score (Sup35N fusion, yeast selection) (log enrichment); library NNK3; higher = more nucleation; inactive = no reads after selection;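 note: zero at mode of non-aggregating sequences after 7 days selection at 30°C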
ASSAY_READOUT: amyloid nucleation score

As a guide, the following entries are already answered.
> print(dat)
              substance             assay.readout  meas.value
1  GGMYKNWGCWLELLGKTLPW  amyloid nucleation score    inactive
2  CRRRYSDLSIYLLVSNDVIV  amyloid nucleation score    inactive
3      SSSTFPSSKIDYGTIR  amyloid nucleation score    inactive
4  LFNLGICYTISNYSLSLEQS  amyloid nucleation score         2.1
5        AFLGEEVNSTLLKS  amyloid nucleation score    inactive
6                RDCDDQ  amyloid nucleation score    inactive
7  CIRPVLSHSYEIKNTGLGRT  amyloid nucleation score    inactive
8   NISFFTHLVSYRPTVRSSD  amyloid nucleation score        1.24

Fill in amyloid nucleation score for each of the 7 substances listed.
1. HVFRLAWTMKLWEADTLS
2. SNVLGWLRKLYS
3. ECCDFSGCRCTSS
4. TLEFHPRAINYDHRMNMFSR
5. THSDYSEPRI
6. WDKMYDDEGKGIVLEVVFLR
7. RTPVKGDRKSWTDRPISTAY

1. inactive
2. inactive
3. -0.498
4. inactive
5. inactive
6. -0.012
7. inactive
